# assayed_target: Interleukin-1 receptor-like 1 (Homo sapiens) (UniProt Q01638)
# Sequence (Q01638 whole entry, looked up): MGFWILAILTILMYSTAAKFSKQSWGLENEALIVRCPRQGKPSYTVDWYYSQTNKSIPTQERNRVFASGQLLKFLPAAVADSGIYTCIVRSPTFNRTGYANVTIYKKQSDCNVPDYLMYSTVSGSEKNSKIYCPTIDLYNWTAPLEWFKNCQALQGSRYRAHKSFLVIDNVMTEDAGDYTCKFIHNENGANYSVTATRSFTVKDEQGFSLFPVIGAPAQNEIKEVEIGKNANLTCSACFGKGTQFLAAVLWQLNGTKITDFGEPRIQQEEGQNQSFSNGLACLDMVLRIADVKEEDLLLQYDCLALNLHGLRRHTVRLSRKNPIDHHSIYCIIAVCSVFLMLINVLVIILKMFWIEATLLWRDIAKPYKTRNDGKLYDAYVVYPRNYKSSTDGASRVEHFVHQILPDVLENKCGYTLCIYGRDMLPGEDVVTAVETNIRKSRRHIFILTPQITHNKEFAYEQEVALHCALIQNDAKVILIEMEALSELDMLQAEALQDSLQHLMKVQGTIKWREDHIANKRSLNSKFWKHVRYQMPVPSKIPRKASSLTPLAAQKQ
# assay_info: inhibitors of human ST2 (IL1RL1) binding to IL-33, primary screen, biochemical, AlphaLISA (AID 1259354)
# experimental_conditions: AlphaLISA ST2-Fc/biotin-IL-33 interaction, 1 h; at 17 µM
About 1,800 (2.3%) of roughly 78,000 compounds were called active. Another 27% or so got no clear call; they are omitted. Cut-off read from the data, not from the text of the source: active = inhibition above about 30%; inconclusive = mostly about 10% to 28%; inactive = weaker than that. This excerpt belongs to a sample that is enriched for actives.
API: response.call in yes (1) for active, no (0) for inactive

Prompt: Please state the recorded outcome for this compound: "COc1ccc(S(=O)(=O)ON=C2C=CC(=O)C=C2)cc1"
Response: yes (1)

Prompt: Please state the recorded outcome for this compound: "O=C(CSCc1ccccc1)Nc1c(-c2ccc(F)cc2)nc2ccccn12"
Response: no (0)

Prompt: Please state the recorded outcome for this compound: "O=S(=O)(NCc1ccccc1)N1CCc2[nH]nc(C3CCC3)c2C1"
Response: no (0)

Prompt: Please state the recorded outcome for this compound: "N#Cc1nc(COc2ccc(Cl)cc2)oc1N1CCCC1"
Response: yes (1)

Prompt: Please state the recorded outcome for this compound: "O=C(CCn1cnnn1)NCc1cnn2ccccc12"
Response: yes (1)

Prompt: Please state the recorded outcome for this compound: "COc1ccccc1C(=O)N/C(=C/c1ccc2c(c1)OCO2)C(=O)Nc1cccc(C(=O)O)c1"
Response: yes (1)

Prompt: Please state the recorded outcome for this compound: "Clc1ccc(OCCN2CCCCCC2)cc1"
Response: no (0)

Prompt: Please state the recorded outcome for this compound: "Cc1csc(SCC(=O)N2CCC(c3cc(C(C)C)n[nH]3)CC2)n1"
Response: no (0)

Prompt: Please state the recorded outcome for this compound: "COc1ccc(OC)c(S(=O)(=O)NCCC(C)C)c1"
Response: no (0)

Prompt: Please state the recorded outcome for this compound: "Cc1nn(C(=O)c2cccnc2)c(C)c1Sc1ccc(Cl)cc1"
Response: no (0)

Prompt: Please state the recorded outcome for this compound: Fc1ccccc1CSc1nnc2c(n1)OC(c1cccnc1)Nc1ccccc1-2 (configuration not stated)
Response: no (0)

Prompt: Please state the recorded outcome for this compound: "CN(C)c1ccc(/C=C\c2nc3ccccc3c(=O)n2-c2ccc(C(=O)O)cc2)cc1"
Response: no (0)

Prompt: Please state the recorded outcome for this compound: "N#Cc1c(NC(=O)CCCC(=O)O)sc2c1CCCC2"
Response: no (0)

Prompt: Please state the recorded outcome for this compound: "O=C(NC[C@H]1O[C@@H](CO)[C@@H](O)[C@H]1N1CCc2ccccc2C1)Nc1ccccc1"
Response: no (0)

Prompt: Please state the recorded outcome for this compound: CCc1cccc(NS(=O)(=O)c2cc(Br)cc3c2N(C(C)=O)C(C)C3)c1 (configuration not stated)
Response: no (0)

Prompt: Please state the recorded outcome for this compound: "CC(C)c1ccc(-c2nc(N3CCCCC3)nc3n[nH]c(N)c23)cc1"
Response: no (0)

Prompt: Please state the recorded outcome for this compound: CC(C(=O)NC1CC1)N1CCc2[nH]nc(C(c3ccccc3)c3ccccc3)c2C1 (configuration not stated)
Response: yes (1)

Prompt: Please state the recorded outcome for this compound: "O=C(c1ccco1)N1CCN(c2ccc([N+](=O)[O-])cc2)CC1"
Response: no (0)

Prompt: Please state the recorded outcome for this compound: "CCN(CC)C(=O)Cn1cnc2sc(C(=O)Nc3cccc(C(F)(F)F)c3)c(C)c2c1=O"
Response: no (0)

Prompt: Please state the recorded outcome for this compound: CC(C)NC(=O)C(CCO)NC(C)C (configuration not stated)
Response: no (0)

Prompt: Please state the recorded outcome for this compound: Cc1ccccc1-c1cc(O)c2c(c1)CN(C(=O)C1C=CCN1)CCO2 (configuration not stated)
Response: no (0)

Prompt: Please state the recorded outcome for this compound: "CSCc1nnc(NC(=O)c2ccc(S(=O)(=O)N3CCCc4ccccc43)cc2)o1"
Response: no (0)

Prompt: Please state the recorded outcome for this compound: "Cc1cc(C)c(C#N)c(SCC(=O)c2ccc3c(c2)OCO3)n1"
Response: no (0)

Prompt: Please state the recorded outcome for this compound: "COc1cc(OC)cc(C(=O)Nc2cc(N3CCCS3(=O)=O)ccc2OC)c1"
Response: no (0)

Prompt: Please state the recorded outcome for this compound: CCOc1ccc(C(C)=O)cc1N1C(=O)C2C3C=CC(CC3)C2C1=O (configuration not stated)
Response: no (0)

Prompt: Please state the recorded outcome for this compound: "CN(Cc1ccccc1)C(=O)CN(C)S(=O)(=O)c1ccc(Cl)cc1"
Response: no (0)

Prompt: Please state the recorded outcome for this compound: "COc1cccc(C(=O)Nc2sc3c(c2C(N)=O)CCCCCC3)c1"
Response: no (0)

Prompt: Please state the recorded outcome for this compound: "CN1CCCC2(CC1)CCN(C(=O)c1cc3ccccc3n(C)c1=O)CC2"
Response: no (0)

Prompt: Please state the recorded outcome for this compound: "N#Cc1c(-n2ncnc2-c2ccc3c(c2)OCO3)sc2c1CCCC2"
Response: yes (1)

Prompt: Please state the recorded outcome for this compound: "Clc1ccc(OCCCCN2CCOCC2)c(Br)c1"
Response: no (0)

Prompt: Please state the recorded outcome for this compound: "CCOc1ccc(NC(=O)C2CCN(S(=O)(=O)c3ccc(OC)c(OC)c3)CC2)cc1"
Response: no (0)

Prompt: Please state the recorded outcome for this compound: "COc1cccc(-c2ncnn2-c2sc3c(c2C#N)CCCCC3)c1"
Response: yes (1)
